assay: Volume of distribution in Wistar Han male rat plasma at 0.05 mg/kg, iv and measured upto 8 hrs post dose by LC-MS/MS analysis; type: ADME, organism-based
value.kind: Vd (L/kg)

structure.smiles.string	Vd (L/kg)
Nc1cc(C(=O)O)ccc1CN1CCC[C@H](O[C@H](CO)c2cc(Cl)cc(Cl)c2)[C@@H]1c1ccccc1	0.5
O=C(O)c1ccc(CN2CCC[C@H](O[C@H](CO)c3cc(Cl)cc(Cl)c3)[C@@H]2c2ccccc2)c([N+](=O)[O-])c1	0.45

###

molecular target: cGMP-dependent protein kinase 1 (Homo sapiens, UniProt Q13976); test: Activation of basal state recombinant PKG1alpha (unknown origin) using Glass-tide peptide substrate incubated for 30 mins followed by ATP addition and measured after 2 hr by ADP-GLO Max Assay
Sequence (Q13976 whole entry): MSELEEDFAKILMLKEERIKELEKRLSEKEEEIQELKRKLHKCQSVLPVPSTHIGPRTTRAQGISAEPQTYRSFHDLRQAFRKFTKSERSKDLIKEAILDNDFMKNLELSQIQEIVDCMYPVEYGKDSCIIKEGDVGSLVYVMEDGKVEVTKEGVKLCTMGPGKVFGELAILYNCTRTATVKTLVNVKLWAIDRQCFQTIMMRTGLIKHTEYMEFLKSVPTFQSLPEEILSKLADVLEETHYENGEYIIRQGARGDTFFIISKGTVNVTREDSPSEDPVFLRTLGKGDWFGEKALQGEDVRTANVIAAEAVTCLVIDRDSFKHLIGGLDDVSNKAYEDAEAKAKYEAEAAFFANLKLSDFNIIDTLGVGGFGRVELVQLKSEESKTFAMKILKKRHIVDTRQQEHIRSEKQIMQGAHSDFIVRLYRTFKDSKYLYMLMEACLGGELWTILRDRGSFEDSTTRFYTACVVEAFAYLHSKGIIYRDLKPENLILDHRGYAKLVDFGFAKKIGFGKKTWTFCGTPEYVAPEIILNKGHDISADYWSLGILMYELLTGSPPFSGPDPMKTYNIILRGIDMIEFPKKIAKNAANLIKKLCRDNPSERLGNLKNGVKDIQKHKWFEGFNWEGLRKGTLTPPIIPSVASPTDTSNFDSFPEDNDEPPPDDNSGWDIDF
The entries below come with measured EC50 values attached.

Record excerpt, results attached:
structure.smiles.string	experimental.result
Cc1cc(C(=O)O)ccc1CN1CCC[C@H](O[C@H](CO)c2ccnc(Cl)c2)[C@@H]1c1ccccc1	> 200 µM
Cc1cc(C(=O)O)ccc1C(=O)N1CCC[C@H](O[C@H](CO)c2cc(Cl)cc(Cl)c2)[C@@H]1c1ccccc1	> 200 µM

Turning now to a further record.
Report measured EC50 on cGMP-dependent protein kinase 1 (Homo sapiens, UniProt Q13976); entry: `OC[C@@H](O[C@H]1CCCN(Cc2ncc[nH]2)[C@H]1c1ccccc1)c1cc(Cl)cc(Cl)c1`
> 200 µM

###

target: cGMP-dependent protein kinase 1 (Homo sapiens, UniProt Q13976); test: Activation of cGMP induced partially activated state recombinant PKG1alpha (unknown origin) using Glass-tide peptide substrate incubated for 30 mins followed by ATP addition and measured after 2 hr in presence of cGMP by ADP-GLO Max Assay
value.kind: EC50 (µM)

Please review the following examples before continuing.
compound	experimental.result
Cc1cc(C(=O)O)ccc1CN1CC[C@H](OC(CO)c2cc(Cl)cc(Cl)c2)[C@@H]1c1ccccc1 (some centres not stated)	133
Cc1cc(C(=O)O)ccc1CN1CCC[C@H](O[C@H](CO)c2ccnc(Cl)c2)[C@@H]1c1ccccc1	50
OC[C@@H](O[C@H]1CCCN(Cc2ncc[nH]2)[C@H]1c1ccccc1)c1cc(Cl)cc(Cl)c1	47
Cc1cc(C(=O)O)ccc1CN1CCC[C@H](OC(c2cc(Cl)cc(Cl)c2)C(C)(C)O)[C@@H]1c1ccccc1 (some centres not stated)	17

I. Cc1cc(C(=O)O)ccc1CN1C(=O)CC[C@H](OCc2cc(Cl)cc(Cl)c2)[C@@H]1c1ccccc1
II. Cc1cc(C(=O)O)ccc1CN1CCC[C@H](O[C@H](CO)c2ccccc2)[C@@H]1c1ccccc1
Returns: the label, I or II , whose recorded EC50 is the lower number. # reply format: chosen label
II
